system.name: HPK1 (Homo sapiens, UniProt Q92918)
Construct: A HiBiT tag was introduced by CRISPR on the N terminus of HPK1 in Jurkat cells; host or cells: Jurkat cells (ATCC TIB-152), monoclonal line with CRISPR knock-in of HiBiT at the endogenous HPK1 locus
Sequence (Q92918 whole entry): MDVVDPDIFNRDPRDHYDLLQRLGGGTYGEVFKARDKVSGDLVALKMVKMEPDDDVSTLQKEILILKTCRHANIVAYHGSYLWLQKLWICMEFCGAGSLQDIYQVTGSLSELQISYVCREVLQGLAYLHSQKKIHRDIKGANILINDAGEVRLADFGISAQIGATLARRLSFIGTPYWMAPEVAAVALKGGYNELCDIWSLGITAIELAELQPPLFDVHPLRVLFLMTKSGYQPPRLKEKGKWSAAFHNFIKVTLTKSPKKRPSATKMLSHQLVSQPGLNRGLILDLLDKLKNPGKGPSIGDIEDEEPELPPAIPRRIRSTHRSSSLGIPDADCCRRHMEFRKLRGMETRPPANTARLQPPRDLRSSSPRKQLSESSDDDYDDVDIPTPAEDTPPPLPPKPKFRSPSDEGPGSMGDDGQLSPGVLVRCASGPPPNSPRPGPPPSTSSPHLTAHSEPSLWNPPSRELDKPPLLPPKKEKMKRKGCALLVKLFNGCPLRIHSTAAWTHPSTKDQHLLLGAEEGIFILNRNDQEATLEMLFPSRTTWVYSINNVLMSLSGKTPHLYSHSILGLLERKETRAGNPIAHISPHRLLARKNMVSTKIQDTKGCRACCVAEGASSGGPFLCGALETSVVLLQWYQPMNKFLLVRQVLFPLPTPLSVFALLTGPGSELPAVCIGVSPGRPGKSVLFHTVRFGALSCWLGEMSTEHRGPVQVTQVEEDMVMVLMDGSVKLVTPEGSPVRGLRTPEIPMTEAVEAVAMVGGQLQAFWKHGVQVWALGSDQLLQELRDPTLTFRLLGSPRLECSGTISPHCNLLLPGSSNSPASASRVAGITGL
protocol: HPK1 Cellular HiBit Degradation Assay
Type: cell-based
protocol.conditions: HiBiT HPK1 Jurkat cells, 24 hrs; concentration at which 50% of HPK1 was remaining; read-out: DC50 Category

[
  {
    "molecule": "CC(C)n1cnc2cc(-c3ccc4c(c3)N([C@H]3C[C@@H](N5CCCCC5)C3)C(=O)C43CCN(C(=O)C4CCN(C(=O)C5CCN(c6ncc(C7CCC(=O)NC7=O)cn6)CC5)CC4)CC3)nc(Nc3ccncc3F)c21 (mixture of isomers)",
    "DC50": "0.1 to 0.5 µM"
  },
  {
    "molecule": "CC(C)n1cnc2cc(-c3ccc4c(c3)N([C@H]3C[C@@H](N5CCCCC5)C3)C(=O)C43CCN(C(=O)C4CN(C(=O)C5CCN(c6ccc(C7CCC(=O)NC7=O)cn6)CC5)C4)CC3)nc(Nc3ccccc3F)c21 (mixture of isomers)",
    "DC50": "< 0.1 µM"
  },
  {
    "molecule": "CC(C)n1cnc2cc(-c3ccc4c(c3)N([C@H]3C[C@@H](N5CCCCC5)C3)C(=O)C43CCN(C(=O)C4CN(C(=O)C5CCN(c6ccc(C7CCC(=O)NC7=O)cn6)CC5)CC(C)(C)C4)CC3)nc(NC3CC3)c21 (mixture of isomers)",
    "DC50": "< 0.1 µM"
  },
  {
    "molecule": "CC(C)n1cnc2cc(-c3ccc4c(c3)N([C@H]3C[C@@H](N5CCCCC5)C3)C(=O)C43CCN(C(=O)[C@H]4CC[C@H](C(=O)N5CCC(N(C)c6ccc(C7CCC(=O)NC7=O)cc6)CC5)CC4)CC3)nc(Nc3ccccc3F)c21 (mixture of isomers)",
    "DC50": "< 0.1 µM"
  }
]

* * *

system.name: HPK1 (Homo sapiens, UniProt Q92918)
Construct: A HiBiT tag was introduced by CRISPR on the N terminus of HPK1 in Jurkat cells; host or cells: Jurkat cells (ATCC TIB-152), monoclonal line with CRISPR knock-in of HiBiT at the endogenous HPK1 locus
protocol: HPK1 Cellular HiBit Degradation Assay
Assay type: cell-based
protocol.conditions: HiBiT HPK1 Jurkat cells, 24 hrs; concentration at which 50% of HPK1 was remaining; read-out: DC50 Category
Catalogue of DC50 readings, one per entry.
experimental.endpoint: DC50

[
  {
    "compound": "CC(C)n1cnc2cc(-c3ccc4c(c3)N([C@H]3C[C@@H](N5CCCCC5)C3)C(=O)C43CCN(C(=O)C4CCN(C(=O)C5CCN(c6ccc(N7CCC(=O)NC7=O)cn6)CC5)CC4)CC3)nc(Nc3ccncc3F)c21",
    "measurement": "< 0.1 µM"
  },
  {
    "compound": "CC(C)n1cnc2cc(-c3ccc4c(c3)N([C@H]3C[C@@H](N5CCCCC5)C3)C(=O)C43CCN(C(=O)[C@@H]4CCN(C(=O)[C@H]5CC[C@H](Oc6ccc(N7CCC(=O)NC7=O)cn6)CC5)C4)CC3)nc(Nc3ccccc3F)c21",
    "measurement": "< 0.1 µM"
  },
  {
    "compound": "Cc1cc(F)c(Nc2nc(-c3ccc4c(c3)N([C@H]3C[C@@H](N5CCCCC5)C3)C(=O)C43CCN(C(=O)C4=CCN(C(=O)[C@H]5CC[C@H](Nc6cccc7c6C(=O)N(C6CCC(=O)NC6=O)C7=O)CC5)CC4)CC3)cc3ncn(C(C)C)c23)cc1C(=O)NC(C)C (mixture of isomers)",
    "measurement": "0.1 to 0.5 µM"
  },
  {
    "compound": "CC(C)n1cnc2cc(-c3ccc4c(c3)N([C@H]3C[C@@H](N5CCCCC5)C3)C(=O)C43CCN(C(=O)C4CCN(C(=O)C5CCN(c6ccc(N7CCC(=O)NC7=O)cc6)CC5)CC4)CC3)nc(Nc3ccncc3F)c21",
    "measurement": "< 0.1 µM"
  },
  {
    "compound": "CC(C)n1cnc2cc(-c3ccc4c(c3)N([C@H]3C[C@@H](N5CCCCC5)C3)C(=O)C43CCN(C(=O)C4CCN(C(=O)[C@H]5CC[C@H](N(C)c6ccc(C7CCC(=O)NC7=O)cn6)CC5)CC4)CC3)nc(Nc3ccncc3F)c21 (mixture of isomers)",
    "measurement": "< 0.1 µM"
  },
  {
    "compound": "CC(C)n1cnc2cc(-c3ccc4c(c3)N([C@H]3C[C@@H](N5CCCCC5)C3)C(=O)C43CCN(C(=O)[C@@H]4CCC[C@H](NC(=O)CC5CCN(c6ccc(C7CCC(=O)NC7=O)cn6)CC5)C4)CC3)nc(NC3CC3)c21 (mixture of isomers)",
    "measurement": "0.1 to 0.5 µM"
  },
  {
    "compound": "CC(C)n1cnc2cc(-c3ccc4c(c3)N([C@H]3C[C@@H](N5CCCCC5)C3)C(=O)C43CCN(C(=O)[C@H]4CCN(C(=O)[C@H]5CC[C@@H](Nc6cccc7c6n(C)c(=O)n7C6CCC(=O)NC6=O)CC5)C4)CC3)nc(Nc3ccccc3F)c21 (mixture of isomers)",
    "measurement": "< 0.1 µM"
  },
  {
    "compound": "CC(C)n1cnc2cc(-c3ccc4c(c3)N([C@H]3C[C@@H](N5CCCCC5)C3)C(=O)C43CCN(C(=O)C[C@@H]4CCN(C(=O)[C@H]5CC[C@@H](Nc6cccc7c6C(=O)N(C6CCC(=O)NC6=O)C7=O)CC5)C4)CC3)nc(NC3CC3)c21 (mixture of isomers)",
    "measurement": "0.5 to 1 µM"
  },
  {
    "compound": "CC(C)n1cnc2cc(-c3ccc4c(c3)N([C@H]3C[C@@H](N5CCCCC5)C3)C(=O)C43CCN(C(=O)[C@@H]4CCN(C(=O)C5CCN(c6ncc(C7CCC(=O)NC7=O)cn6)CC5)C4)CC3)nc(Nc3ccccc3F)c21 (stereo partly shown)",
    "measurement": "< 0.1 µM"
  },
  {
    "compound": "CC(C)n1cnc2cc(-c3ccc4c(c3)N([C@H]3C[C@@H](N5CCCCC5)C3)C(=O)C43CCN(C(=O)[C@@H]4CCN(C(=O)[C@H]5CC[C@H](Oc6ccc(C7CCC(=O)NC7=O)cn6)CC5)C4)CC3)nc(Nc3ccncc3F)c21 (mixture of isomers)",
    "measurement": "0.1 to 0.5 µM"
  },
  {
    "compound": "CC(C)n1cnc2cc(-c3ccc4c(c3)N([C@H]3C[C@@H](N5C6CCC5COC6)C3)C(=O)C43CCN(C(=O)C4(C)CCN(C(=O)CC5CCN(c6ccc(C7CCC(=O)NC7=O)cn6)CC5)CC4)CC3)nc(NC3CC3)c21 (mixture of isomers)",
    "measurement": "0.1 to 0.5 µM"
  },
  {
    "compound": "CC(C)n1cnc2cc(-c3ccc4c(c3)N([C@H]3C[C@@H](N5CCC[C@@H](F)C5)C3)C(=O)C43CCN(C(=O)C4(C)CCN(C(=O)CC5CCN(c6ccc(C7CCC(=O)NC7=O)cn6)CC5)CC4)CC3)nc(NC3CC3)c21 (mixture of isomers)",
    "measurement": "0.1 to 0.5 µM"
  },
  {
    "compound": "CC(C)n1cnc2cc(-c3ccc4c(c3)N([C@H]3C[C@@H](N5CCCCC5)C3)C(=O)C43CCN(C(=O)[C@H]4CCN(C(=O)C5CCN(c6ccc(C7CCC(=O)NC7=O)cn6)CC5)C4)CC3)nc(NC3CC3)c21 (mixture of isomers)",
    "measurement": "0.1 to 0.5 µM"
  },
  {
    "compound": "CC(C)n1cnc2cc(-c3ccc4c(c3)N([C@H]3C[C@@H](N5CCCCC5)C3)C(=O)C43CCN(C(=O)c4ccc(C(=O)N5CCN(c6ccc(C7CCC(=O)NC7=O)cc6)CC5)cc4)CC3)nc(Nc3ccccc3F)c21 (mixture of isomers)",
    "measurement": "0.5 to 1 µM"
  },
  {
    "compound": "CC(C)n1cnc2cc(-c3ccc4c(c3)N([C@H]3C[C@@H](N5CCCCC5)C3)C(=O)C43CCN(C(=O)C4CCN(C(=O)C5CCN(c6ccc(C7CCC(=O)NC7=O)nc6)CC5)CC4)CC3)nc(NC3CC3)c21 (stereo partly shown)",
    "measurement": "0.1 to 0.5 µM"
  },
  {
    "compound": "CC(C)n1cnc2cc(-c3ccc4c(c3)N([C@H]3C[C@@H](N5CCCCC5)C3)C(=O)C43CCN(C(=O)C4CCN(C(=O)C5CCN(c6ccc(C(=O)NC7CCC(=O)NC7=O)nc6)CC5)CC4)CC3)nc(Nc3ccccc3F)c21 (mixture of isomers)",
    "measurement": "0.1 to 0.5 µM"
  }
]
